Listed next: entries and their corresponding TGI.
System: SW-620 colon
protocol: NCI tumour cell line growth inhibition, 48 h

According to the records, this molecule Nc1nc(Cl)cc(NCC2(CO)CCC2)n1 displays TGI of > 100 µM

According to the records, this molecule COc1ccccc1CNC(=O)C1c2ccccc2C(=O)N(CC(C)C)C1c1cccs1 (centres undefined) displays TGI of > 100 µM

====

System: A498 renal
protocol: NCI tumour cell line growth inhibition, 48 h
Listed next: entries and their corresponding TGI.

Solved cases below.
>>> observed("COC1C=C(NCC2(CO)CCC2)NC(N)=N1 (stereo unspecified)")
"> 100 µM"
>>> observed("C[C@H]1COC2(c3ccccc3)CCC(=O)N12 (stereo partly specified)")
"> 100 µM"
>>> observed("O=C(O)C(Br)C(Br)c1ccccc1[N+](=O)[O-] (stereo unspecified)")
"> 100 µM"
>>> observed("C[C@@H]1CC[C@H]2C(COC/C=C/COCC3=C(C(F)(F)F)O[C@@H]4O[C@@]5(C)CC[C@H]6[C@H](C)CC[C@@H]3[C@@]46OO5)=C(C(F)(F)F)O[C@@H]3O[C@@]4(C)CC[C@@H]1[C@]32OO4")
"> 100 µM"
>>> observed("CN(/N=C/c1ccnc2ccccc12)c1ccc([N+](=O)[O-])cc1[N+](=O)[O-]")
"> 100 µM"
>>> observed("Fc1ccc(F)c(C2SCc3nc4ccccc4n32)c1 (stereo unspecified)")
"> 100 µM"
>>> observed("Cn1cc2c(=O)n3ncn(-c4ccc(Br)cc4)c3nc2n1")
"> 100 µM"
>>> observed("C#CCCOC1(OC)N=NC(C)(C)O1 (stereo unspecified)")
"> 100 µM"
>>> observed("c1ccc2c[n+](CCCCCCCCCC[n+]3ccc4ccccc4c3)ccc2c1")
"> 10 µM"
>>> observed("CC(C)(C)C1CCC2(CC1)CCN(CCCN1CCOCC1)CC2")
"> 57.4 µM"

Could you now consider this next compound?
According to the records, this compound COc1ccc(OC)c(NC(=O)C(=O)Nn2c(=S)[nH]c3ccccc3c2=O)c1 displays TGI of > 100 µM

====

Listed next: entries and their corresponding GI50.
Tested on: EKVX NSCLC
protocol: NCI tumour cell line growth inhibition, 48 h

>>> observed("Cc1ccc2[nH]c(C(=O)NN3C(=O)CSC34CCCC(C)C4)c(-c3ccccc3)c2c1 (stereo not drawn)")
"24.2 µM"
>>> observed("CCOC(=O)c1c(C)n(CC(C)C)c2c1cc1oc(=O)c(=O)n3cnc2c13")
"17.4 µM"

Could you now consider this next molecule?
According to the records, this molecule CCCCCCNC(=O)Oc1ccc(/C(=C(\C)c2ccccc2)c2ccc(OCCN3CCCCC3)cc2)cc1 displays GI50 of 4.11 µM

====

Tested on: HOP-62 NSCLC
protocol: NCI tumour cell line growth inhibition, 48 h
Listed next: entries and their corresponding GI50.

Solved cases below.
>>> observed("O=C(NCCCNC(=O)OCc1ccc2c(Br)cc(Br)c(O)c2n1)OCc1ccc2c(Br)cc(Br)c(O)c2n1")
"> 100 µM"
>>> observed("O=C1C=CN(C2OC(CO)C(O)C2O)C(=O)C1 (stereo unspecified)")
"18.7 µM"
>>> observed("O=C1C(Cl)=C(Nc2cccc(C(F)(F)F)c2)C(=O)N1Cc1ccccc1Cl")
"12.6 µM"

According to the records, this molecule COc1cc(C2CC(c3ccc4c(c3)OCO4)=NN2C(C)=O)cc(OC)c1OC (stereo unspecified) displays GI50 of 1.14 µM

According to the records, this molecule Cc1[nH]nc2c1N=C(c1ccccc1F)c1cc(C#N)ccc1N2 displays GI50 of 0.899 µM

According to the records, this molecule COc1cccc2c1cc([N+](=O)[O-])c1c(C(=O)O)cc3c(c12)OCO3 displays GI50 of 28.4 µM

According to the records, this molecule CCCCCCNC(=O)Oc1ccc(/C(=C(\C)c2ccccc2)c2ccc(OCCN3CCCCC3)cc2)cc1 displays GI50 of 3.22 µM

====

System: SNB-75 CNS
protocol: NCI tumour cell line growth inhibition, 48 h
readoutLabel: TGI

Solved cases below.
>>> observed("CC(C)(C)C1CCC2(CC1)CCN(CCCN1CCOCC1)CC2")
"> 52.4 µM"
>>> observed("Cc1cccc2c1Oc1cc(Cl)ccc1C2NC(=O)CN(C)C (configuration not stated)")
"68.8 µM"
>>> observed("O=C(O)c1ccc(-c2ccc(C(=O)O)cc2I)c(I)c1")
"> 100 µM"
>>> observed("Cc1[nH]c(=O)nc(CC(O)(c2ccccc2)c2ccccc2)c1-c1ccccc1")
"> 100 µM"
>>> observed("COC(=O)/C(C#N)=C1\\NC(=O)CC(c2ccccc2)C1C#N (configuration not stated)")
"> 100 µM"
>>> observed("C#CCCOC1(OC)N=NC(C)(C)O1 (configuration not stated)")
"> 100 µM"
>>> observed("CC1CCCN(CC(O)CN2CCCc3ccccc32)C1 (configuration not stated)")
"> 100 µM"
>>> observed("O=C(O)c1ccccn1")
"> 100 µM"

According to the records, this molecule Nc1nc(N)nc(-c2cnccn2)n1 displays TGI of > 100 µM

According to the records, this molecule CCOC(=O)C1=C(C)N(C)C(=S)NC1c1cccc(O)c1 (configuration not stated) displays TGI of > 100 µM

According to the records, this molecule C=CC[Se]C(=O)Cc1c(C)n(C(=O)c2ccc(Cl)cc2)c2ccc(OC)cc12 displays TGI of 2.81 µM

According to the records, this molecule CC(=O)OC1OC2C(NC(=O)OC(C)(C)C)C1CC2(OCc1ccccc1)OCc1ccccc1 (configuration not stated) displays TGI of > 100 µM

According to the records, this molecule Cc1cc(S(=O)(=O)Nc2nc(N)nc(N3CCOCC3)n2)c(SCC(=O)O)cc1Cl displays TGI of > 10 µM

====

System: OVCAR-5 ovarian
protocol: NCI tumour cell line growth inhibition, 48 h
Where a SMILES comes first, the peptide text is derived from it. [ ]: non-standard residue; d: D form. The star is where a group is joined. ξ: configuration not given here. ξPhe(4-NO2) = NC(Cc1ccc([N+](=O)[O-])cc1)C(=O)O; Boc = CC(C)(C)OC(=O)*; OBn = c1ccc(CO*)cc1
Listed next: entries and their corresponding TGI.

Solved cases below.
>>> observed("CC1=Nc2c([nH]c(=S)[nH]c2=O)NC(c2ccc(Cl)c(Cl)c2)C1 (stereo unspecified)")
"> 100 µM"
>>> observed("O=C(O)c1ccc(S(=O)(=O)N=Nc2c(O)[nH]c3ccccc23)cc1")
"> 100 µM"
>>> observed("COC(=O)/C(C#N)=C1\\NC(=O)CC(c2ccccc2)C1C#N (stereo unspecified)")
"> 100 µM"
>>> observed("CCCCCCNC(=O)Oc1ccc(/C(=C(\\C)c2ccccc2)c2ccc(OCCN3CCCCC3)cc2)cc1")
"24.1 µM"
>>> observed("O=C1c2ccccc2C(=O)c2c(NCCNC(=O)C3CCCN3)ccc(NCCNC(=O)C3CCCN3)c21 (stereo unspecified)")
"> 100 µM"
>>> observed("Cc1cn(CC2=NCC(C)(C)CN2)c(=O)[nH]c1=O")
"> 100 µM"
>>> observed("CC(C)(C)OC(=O)NC(Cc1ccc([N+](=O)[O-])cc1)C(=O)NCC(=O)OCc1ccccc1 (stereo unspecified) (Boc-[ξPhe(4-NO2)]-Gly-OBn)")
"> 100 µM"
>>> observed("CCOC(=O)c1nnsc1NC(=O)Nc1ccc(Cl)cc1")
"> 100 µM"
>>> observed("O=C1C=CN(C2OC(CO)C(O)C2O)C(=O)C1 (stereo unspecified)")
"> 2500 µM"
>>> observed("O=C1Nc2ccccc2[C@]12C[C@H]2c1ccccn1")
"> 100 µM"

According to the records, this compound CC12CCc3ccccc3C1=Nc1ccccc12 (stereo unspecified) displays TGI of > 100 µM

According to the records, this compound O=[N+]([O-])c1cc(Cl)cc2c1nc(NCCO)c1ccccc12 displays TGI of > 63 µM

====

Tested on: SR leukemia
protocol: NCI tumour cell line growth inhibition, 48 h
Listed next: entries and their corresponding TGI.

>>> observed("CC(NC(=O)/C(C#N)=C/c1ccc2[nH]ccc2c1)c1ccccc1 (stereo not drawn)")
"83.7 µM"
>>> observed("COC1C=C(NCC2(CO)CCC2)NC(N)=N1 (stereo not drawn)")
"> 100 µM"
>>> observed("Cc1cc(=O)[nH]c(NN2C(Cl)C(=O)C2c2cccc([N+](=O)[O-])c2)n1 (stereo not drawn)")
"57.8 µM"
>>> observed("COc1ccc(NC(=O)c2sc3nc(C)c(C(O)c4ccc(OC)cc4)cc3c2N)cc1 (stereo not drawn)")
"> 50 µM"
>>> observed("O=[N+]([O-])c1cc(Cl)cc2c1nc(NCCO)c1ccccc12")
"7.09 µM"

According to the records, this compound O=c1oc2ccccc2cc1-c1nnc(-c2ccccc2)s1 displays TGI of > 36.8 µM

According to the records, this compound CC(=O)n1nc(-c2nc3ccccc3nc2Cl)cc1Cl displays TGI of 13.3 µM

According to the records, this compound COc1cc(/C=C2/SC(c3ccccc3)N(c3ccc(Cl)cc3)C2=O)cc(OC)c1OC (stereo not drawn) displays TGI of > 100 µM

According to the records, this compound O=C(c1ccco1)c1c(C(F)(F)F)nc2cc(C(F)(F)F)ccc2[n+]1[O-] displays TGI of > 100 µM

According to the records, this compound O=C(N=Nc1c(O)[nH]c2c(Cl)cc(Cl)cc12)c1ccncc1 displays TGI of 69.2 µM

According to the records, this compound Cc1c(C2Cc3ccccc3N2C(=O)/C=C\C(=O)O)c2ccccc2n1C (stereo not drawn) displays TGI of 85.8 µM

According to the records, this compound CCCC(=O)N/S(=N/S(=O)(=O)c1ccc(Cl)cc1)C(Cl)(Cl)Cl (stereo not drawn) displays TGI of > 100 µM

According to the records, this compound C#CCOc1ccc2ncnc(Nc3ccc(NC(=O)CCl)cc3)c2c1 displays TGI of 15 µM

According to the records, this compound CC(=N/NC(=S)Nc1c(C)n(C)n(-c2ccccc2)c1=O)/C(C)=N\NC(=S)Nc1c(C)n(C)n(-c2ccccc2)c1=O displays TGI of > 100 µM

According to the records, this compound CCN(Cc1nc2cc(C(F)(F)F)ccc2nc1-c1ccccc1)c1ccc(OC)c(OC)c1 displays TGI of 31.2 µM

According to the records, this compound COc1ccc(-n2c3c(c4cc(O)ccc42)C(=O)c2ccccc2C3=O)cc1 displays TGI of 56.9 µM

According to the records, this compound CCCC(=O)NC(c1ccc2c(c1)OCO2)c1ccc2cccnc2c1O (stereo not drawn) displays TGI of > 100 µM

According to the records, this compound O=C(NCCN1CCOCC1)Nc1ccc(-c2cc3c(Nc4ccc(Oc5cccc(C(F)(F)F)c5)c(Cl)c4)ncnc3s2)cc1 displays TGI of 27.6 µM

According to the records, this compound Oc1ccc(Br)cc1/C=N/NC(=S)NC12CC3CC(CC(C3)C1)C2 displays TGI of 3.47 µM

According to the records, this compound CN(C)c1nc(N(C)C)n2nc(-c3ccccc3[N+](=O)[O-])nc2n1 displays TGI of > 100 µM

According to the records, this compound CO/C(=N\N=C\c1ccc(OC)cc1OC)c1ccncc1 displays TGI of > 10 µM

According to the records, this compound O=C(O)C(Br)C(Br)c1ccccc1[N+](=O)[O-] (stereo not drawn) displays TGI of > 100 µM

According to the records, this compound CC1=CCC[C@@](C)(O)[C@@H]2C[C@H]3C(CSc4ccccc4)C(=O)O[C@H]3[C@@H](O2)[C@H](C)CCC1 (stereo partly drawn) displays TGI of > 100 µM

According to the records, this compound COC(C/C(=C/CO[Si](C(C)C)(C(C)C)C(C)C)C(=O)Nc1ccccc1I)OC displays TGI of > 100 µM

According to the records, this compound COC(=O)C1=C(c2cc(OC)c(OC)c(OC)c2)OC(c2cc(OC)c(OC)c(OC)c2)C1COC(C)=O (stereo not drawn) displays TGI of 52.2 µM

According to the records, this compound NC(N)=N/N=C/c1cccc(Cl)c1Cl displays TGI of 11.2 µM

According to the records, this compound O=C(O)c1ccccn1 displays TGI of > 100 µM

According to the records, this compound CC[C@H](Nc1nc(N)nc(N)c1Cl)c1nc2cccc(NCc3ccc(C(=O)NO)cc3)c2c(=O)n1-c1ccccc1 displays TGI of > 100 µM

According to the records, this compound CC(=O)OC1OC2C(NC(=O)OC(C)(C)C)C1CC2(OCc1ccccc1)OCc1ccccc1 (stereo not drawn) displays TGI of > 100 µM

According to the records, this compound O=C(O)c1ccc(N=Nc2cc(S(=O)(=O)O)c3cccnc3c2O)cc1 displays TGI of > 100 µM

According to the records, this compound Cn1cc2c(=O)n3ncn(-c4ccc(Br)cc4)c3nc2n1 displays TGI of > 100 µM

According to the records, this compound c1ccc2cc(OCC3CO3)c(OCC3CO3)cc2c1 (stereo not drawn) displays TGI of 2.15 µM

According to the records, this compound COC(=O)[C@@H](Cc1c[nH]c2ccccc12)NC(=O)/C=C/c1ccccc1 displays TGI of 11.6 µM

These data points were gathered from PubChem BioAssay (NCI).
